# merged literature set: IC50 with HIV protease (Human immunodeficiency virus type 1 group M subtype B)
Measurement Name: IC50 (nM)

Here's what some known entries look like.
{"columns": ["Smiles", "IC50 (nM)"],
 "data": [
  ["CC[C@H](C)[C@H](NC(=O)[C@@H](C)N(C)C(=O)OCc1ccccc1)C(=O)N[C@@H](Cc1ccccc1)[C@H](O)CN(CCC(C)C)C(=O)NC(C)(C)C", 370],
  ["CC(C)CCN1C[C@@H](O)[C@H](Cc2ccccc2)NC(=O)[C@@H](NC(=O)OCc2ccccc2)C(C)(C)SCCCCCNC1=O", 1260],
  ["CC(C)CN(C[C@@H](O)[C@H](Cc1ccccc1)NC(=O)[C@H](C)CS(=O)(=O)CC(=O)N1CCN(C(=O)OC(C)(C)C)CC1)S(=O)(=O)c1ccc2c(c1)OCO2", 7]
]}

1: CC(C)CCN(C[C@@H](O)[C@H](Cc1ccccc1)NC(=O)[C@@H](NC(=O)[C@@H](C)N(C)C(=O)OCc1ccccc1)C(C)(C)C)C(=O)NC(C)(C)C
2: CC(C)CN(C[C@@H](O)[C@H](Cc1ccccc1)NC(=O)[C@H](C)CS(=O)(=O)CC(=O)NCC[N+]1([O-])CCCC1)S(=O)(=O)c1ccc2c(c1)OCO2
3: CC(C)CCN1C[C@@H](O)[C@H](Cc2ccccc2)NC(=O)[C@@H](NC(=O)OCc2ccccc2)CSCCCC(C)(C)NC1=O
Req: Please rank these molecules by IC50 in descending order. Reply with the item labels sorted in the order that was asked for.
Resp: 3, 1, 2
(3: 140 nM, 1: 70 nM, 2: 10 nM)
